These data points were gathered from patent US11771709B2.

# Lookup of reported DC50 keyed by entry
- target.or.system: ALK protein in H3122 (EML4-ALK) cells (Homo sapiens)
- Construct: EML4 (Echinoderm microtubule-associated protein-like 4, Q9HC35) fusion partner, variant 1; host or cells: NCI-H3122 lung adenocarcinoma cells; the other entry of the earlier key: EML4 (Q9HC35, Echinoderm microtubule-associated protein-like 4)
- Sequence (Q9UM73 with tags, fused parts or gaps): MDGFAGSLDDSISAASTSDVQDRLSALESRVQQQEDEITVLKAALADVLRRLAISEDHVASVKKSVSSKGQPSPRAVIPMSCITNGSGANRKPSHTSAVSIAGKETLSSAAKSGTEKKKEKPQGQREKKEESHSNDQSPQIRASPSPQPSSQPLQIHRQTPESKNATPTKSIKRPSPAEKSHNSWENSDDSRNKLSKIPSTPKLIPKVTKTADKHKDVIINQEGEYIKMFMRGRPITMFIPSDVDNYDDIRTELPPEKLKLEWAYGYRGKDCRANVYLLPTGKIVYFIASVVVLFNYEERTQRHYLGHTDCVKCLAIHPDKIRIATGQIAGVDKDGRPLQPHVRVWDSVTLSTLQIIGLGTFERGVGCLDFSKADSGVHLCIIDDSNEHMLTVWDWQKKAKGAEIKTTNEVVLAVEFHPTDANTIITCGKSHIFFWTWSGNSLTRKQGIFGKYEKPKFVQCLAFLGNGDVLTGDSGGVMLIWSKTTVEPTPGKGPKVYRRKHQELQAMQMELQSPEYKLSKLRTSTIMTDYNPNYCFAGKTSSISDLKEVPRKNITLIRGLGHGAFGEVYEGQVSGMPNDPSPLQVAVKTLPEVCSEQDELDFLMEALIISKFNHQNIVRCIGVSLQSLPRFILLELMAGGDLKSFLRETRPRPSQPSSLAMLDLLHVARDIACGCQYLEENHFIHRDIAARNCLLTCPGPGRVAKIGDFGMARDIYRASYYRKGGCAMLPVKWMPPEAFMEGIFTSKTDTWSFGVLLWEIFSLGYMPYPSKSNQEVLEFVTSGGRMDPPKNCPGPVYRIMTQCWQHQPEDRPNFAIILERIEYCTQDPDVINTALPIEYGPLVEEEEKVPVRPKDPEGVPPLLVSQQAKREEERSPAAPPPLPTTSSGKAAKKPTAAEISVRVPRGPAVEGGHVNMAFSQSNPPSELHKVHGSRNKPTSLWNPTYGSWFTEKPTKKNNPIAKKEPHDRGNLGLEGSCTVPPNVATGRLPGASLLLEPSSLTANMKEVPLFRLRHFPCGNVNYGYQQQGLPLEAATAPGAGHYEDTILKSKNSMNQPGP
- protocol: Western blot of ALK protein level (degradation, DC50), ALK phosphorylation and downstream signaling in H3122 cells
- Format: cell-based
- stated.conditions: ALK protein degradation in H3122 cells

Please review the entries below; each comes with its answer.
compound: COc1cc(N2CCN(C(=O)CCOCCOCCOCCOCCC(=O)N[C@H](C(=O)N3C[C@H](O)C[C@H]3C(=O)NCc3ccc(-c4scnc4C)cc3)C(C)(C)C)CC2)ccc1Nc1ncc(Cl)c(Nc2ccccc2P(C)(C)=O)n1
target.or.system: ALK protein in H3122 (EML4-ALK) cells (Homo sapiens)
DC50: 50 to 500 nM
//
compound: CCc1cc2c(cc1N1CCN(C(=O)CCOCCOCCC(=O)N[C@H](C(=O)N3C[C@H](O)C[C@H]3C(=O)NCc3ccc(-c4scnc4C)cc3)C(C)(C)C)CC1)C(C)(C)c1[nH]c3cc(C#N)ccc3c1C2=O
target.or.system: ALK protein in H3122 (EML4-ALK) cells (Homo sapiens)
DC50: 20 to 100 nM
//
compound: COc1cc(N2CCC(N3CCN(C(=O)CCCNc4cccc5c4C(=O)N(C4CCC(=O)NC4=O)C5=O)CC3)CC2)ccc1Nc1ncc(Cl)c(Nc2ccccc2P(C)(C)=O)n1 (stereo not drawn)
target.or.system: ALK protein in H3122 (EML4-ALK) cells (Homo sapiens)
DC50: 1 to 50 nM
//
compound: COc1cc(N2CCN(C(=O)CCC(=O)N[C@H](C(=O)N3C[C@H](O)C[C@H]3C(=O)NCc3ccc(-c4scnc4C)cc3)C(C)(C)C)CC2)ccc1Nc1ncc(Cl)c(Nc2ccccc2P(C)(C)=O)n1
target.or.system: ALK protein in H3122 (EML4-ALK) cells (Homo sapiens)
DC50: 1 to 50 nM
//
compound: Cc1cc(Nc2ncc(Cl)c(Nc3ccccc3S(=O)(=O)C(C)C)n2)c(OC(C)C)cc1C1CCN(C(=O)CCOCCOCCOCCOCCOCCNc2cccc3c2C(=O)N(C2CCC(=O)NC2=O)C3=O)CC1 (stereo not drawn)
target.or.system: ALK protein in H3122 (EML4-ALK) cells (Homo sapiens)
DC50: 10 to 50 nM
//
compound: COc1cc(N2CCC(NC(=O)CCCC(=O)N[C@H](C(=O)N3C[C@H](O)C[C@H]3C(=O)NCc3ccc(-c4scnc4C)cc3)C(C)(C)C)CC2)ccc1Nc1ncc(Cl)c(Nc2ccccc2P(C)(C)=O)n1
target.or.system: ALK protein in H3122 (EML4-ALK) cells (Homo sapiens)
DC50: 20 to 100 nM

Give the measured DC50 of "COc1cc(N2CCC(N3CCN(C(=O)CCOCCOCCC(=O)N[C@H](C(=O)N4C[C@H](O)C[C@H]4C(=O)NCc4ccc(-c5scnc5C)cc4)C(C)(C)C)CC3)CC2)ccc1Nc1ncc(Cl)c(Nc2ccccc2P(C)(C)=O)n1" .
20 to 100 nM

Give the measured DC50 of "COc1cc(N2CCC(NC(=O)COCCOCC(=O)N[C@H](C(=O)N3C[C@H](O)C[C@H]3C(=O)NCc3ccc(-c4scnc4C)cc3)C(C)(C)C)CC2)ccc1Nc1ncc(Cl)c(Nc2ccccc2P(C)(C)=O)n1" .
100 to 500 nM

Give the measured DC50 of "COc1cc(N2CCN(C(=O)CCOCCOCCOCCOCCOCCC(=O)N[C@H](C(=O)N3C[C@H](O)C[C@H]3C(=O)NCc3ccc(-c4scnc4C)cc3)C(C)(C)C)CC2)ccc1Nc1ncc(Cl)c(Nc2ccccc2P(C)(C)=O)n1" .
20 to 100 nM
